- systemName: Delta-type opioid receptor (Homo sapiens)
- Sequence (P41143 whole entry): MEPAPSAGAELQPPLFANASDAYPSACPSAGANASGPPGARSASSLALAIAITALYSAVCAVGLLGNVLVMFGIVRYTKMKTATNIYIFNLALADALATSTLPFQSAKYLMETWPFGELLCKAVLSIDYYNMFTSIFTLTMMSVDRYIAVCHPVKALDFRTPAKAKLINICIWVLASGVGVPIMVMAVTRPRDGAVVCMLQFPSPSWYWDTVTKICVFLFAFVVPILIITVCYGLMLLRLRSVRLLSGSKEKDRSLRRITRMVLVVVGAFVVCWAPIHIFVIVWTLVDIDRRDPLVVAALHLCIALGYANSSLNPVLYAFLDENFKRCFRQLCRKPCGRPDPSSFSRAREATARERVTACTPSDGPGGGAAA
- methodSummary: Inverse agonist activity at human cloned delta opioid receptor expressed in CHO cells assessed as […] [35S]GTP-gamma-S binding in presence of 1 uM GDP relative to control
- Type: functional, cell-based
- Set-up: scale not given: the % may be the effect or the level left
Where a SMILES comes first, the peptide text is derived from it. [ ]: non-standard residue; d: D form. The star is where a group is joined. Tyr(Nα,Nα-allyl2) = C=CCN(CC=C)[C@@H](Cc1ccc(O)cc1)C(=O)*; Aib = CC(C)(N)C(=O)O

compound	systemName	resultUnits	Activity
C[C@H]1CN(CCCc2ccccc2)[C@@H]2C[C@@H](NC(=O)C3(c4ccccc4)CCC3)C[C@@]1(c1cccc(O)c1)C2	Delta-type opioid receptor (Homo sapiens)	%	65
Cc1ccccc1/C=C/CN1C[C@H](C)[C@@]2(c3cccc(O)c3)C[C@H](NC(=O)C3(c4ccccc4)CCCC3)C[C@@H]1C2	Delta-type opioid receptor (Homo sapiens)	%	70
Cc1ccccc1/C=C/CN1C[C@H](C)[C@@]2(c3cccc(O)c3)C[C@H](NC(=O)C(C)(C)c3ccccc3)C[C@@H]1C2	Delta-type opioid receptor (Homo sapiens)	%	70
C[C@H]1CN(C/C=C/c2ccccc2)[C@@H]2C[C@@H](NC(=O)C(C)(C)c3ccccc3)C[C@@]1(c1cccc(O)c1)C2	Delta-type opioid receptor (Homo sapiens)	%	78
C=CCN(CC=C)[C@@H](Cc1ccc(O)cc1)C(=O)NC(C)(C)C(=O)NC(C)(C)C(=O)N[C@@H](Cc1ccccc1)C(=O)N[C@@H](CC(C)C)C(=O)O ({Tyr(Nα,Nα-allyl2)}-[Aib][Aib]FL-OH)	Delta-type opioid receptor (Homo sapiens)	%	75

###

In this section, each of the compounds is paired with its reported Ratio Ke.
- systemName: Opioid receptors; mu & delta (Homo sapiens) (UniProt P41143+P35372)
- Sequence (P35372 whole entry, looked up): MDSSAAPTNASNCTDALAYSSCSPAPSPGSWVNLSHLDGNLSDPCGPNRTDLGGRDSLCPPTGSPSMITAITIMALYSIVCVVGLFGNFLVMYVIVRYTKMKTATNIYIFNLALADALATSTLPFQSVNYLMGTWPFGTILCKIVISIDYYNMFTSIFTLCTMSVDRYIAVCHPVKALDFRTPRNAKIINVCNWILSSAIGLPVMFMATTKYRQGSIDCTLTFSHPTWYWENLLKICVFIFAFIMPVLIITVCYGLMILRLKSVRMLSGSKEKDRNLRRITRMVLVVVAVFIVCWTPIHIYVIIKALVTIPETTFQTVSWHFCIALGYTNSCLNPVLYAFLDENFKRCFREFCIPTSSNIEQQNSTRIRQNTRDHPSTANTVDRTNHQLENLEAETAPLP
- Sequence (P41143 whole entry, looked up): as the sequence (P41143 whole entry) above
- methodSummary: Selectivity for human cloned delta opioid receptor over mu opioid receptor
- Format: protein assay

smilesRepresentation	Ratio Ke
C[C@H]1CN(CCCc2ccccc2)[C@@H]2C[C@@H](NC(=O)C3(c4ccc(F)cc4)CCCC3)C[C@@]1(c1cccc(O)c1)C2	35
C[C@H]1CN(CCCc2ccccc2)[C@@H]2C[C@@H](NC(=O)C3(c4ccccc4)CCC3)C[C@@]1(c1cccc(O)c1)C2	62
C[C@@H](C(=O)N[C@@H]1C[C@@H]2C[C@](c3cccc(O)c3)(C1)[C@@H](C)CN2CCCc1ccccc1)c1ccccc1	69

###

- systemName: Delta-type opioid receptor (Homo sapiens)
- methodSummary: Inverse agonist activity at human cloned delta opioid receptor expressed in CHO cells assessed as […] [35S]GTP-gamma-S binding in presence of 1 uM GDP relative to control
- Assay type: functional, cell-based
- Design: scale not given: the % may be the effect or the level left

smilesRepresentation	Activity
CCC(CC)(C(=O)N[C@@H]1C[C@@H]2C[C@](c3cccc(O)c3)(C1)[C@@H](C)CN2CCCc1ccccc1)c1ccccc1	61%
C[C@H]1CN(CCCc2ccccc2)[C@@H]2C[C@@H](NC(=O)C3(c4ccc(F)cc4)CCCC3)C[C@@]1(c1cccc(O)c1)C2	72%
C[C@H]1CN(CCCc2ccccc2)[C@@H]2C[C@@H](NC(=O)C3(c4cccc5ccccc45)CCCC3)C[C@@]1(c1cccc(O)c1)C2	46%
C[C@H]1CN(CCCc2ccccc2)[C@@H]2C[C@@H](NC(=O)C3(c4cccs4)CCCC3)C[C@@]1(c1cccc(O)c1)C2	54%
C[C@H]1CN(CCCc2ccccc2)[C@@H]2C[C@@H](NC(=O)C3(c4ccccc4)CCCCCC3)C[C@@]1(c1cccc(O)c1)C2	70%
C[C@H]1CN(CCOc2ccccc2)[C@@H]2C[C@@H](NC(=O)C(C)(C)c3ccccc3)C[C@@]1(c1cccc(O)c1)C2	83%
C[C@H]1CN(CCCc2ccccc2)[C@@H]2C[C@@H](NC(=O)C3(c4ccccc4)CCCCC3)C[C@@]1(c1cccc(O)c1)C2	65%

###

- systemName: Mu-type opioid receptor (Homo sapiens)
- methodSummary: Antagonist activity at human cloned mu opioid receptor expressed in CHO cells assessed as inhibition of DAMGO-stimulated [35S]GTP-gamma-S binding in presence of 10 uM GDP
- Assay type: functional, cell-based
Mark Criterion met only when Ke stays strictly below 10 nM. Values equal to the cut-off are Criterion not met.

compound	classLabel
C[C@H]1CN(CCCc2ccccc2)[C@@H]2C[C@@H](NC(=O)C3(c4ccc(F)cc4)CCCC3)C[C@@]1(c1cccc(O)c1)C2	Criterion met
C[C@H]1CN(CCCc2ccccc2)[C@@H]2C[C@@H](NC(=O)C3(c4ccc5ccccc5c4)CCCC3)C[C@@]1(c1cccc(O)c1)C2	Criterion not met
C[C@H]1CN(C)[C@@H]2C[C@@H](NC(=O)C3(c4ccccc4)CCCC3)C[C@@]1(c1cccc(O)c1)C2	Criterion not met
COc1ccc(C2(C(=O)N[C@@H]3C[C@@H]4C[C@](c5cccc(O)c5)(C3)[C@@H](C)CN4CCCc3ccccc3)CCCC2)cc1	Criterion not met
C[C@H]1CN(C/C=C/c2ccccc2)[C@@H]2C[C@@H](NC(=O)C(C)(C)c3ccccc3)C[C@@]1(c1cccc(O)c1)C2	Criterion met
C[C@H]1CN(CCCc2ccccc2)[C@@H]2C[C@@H](NC(=O)C3(c4ccsc4)CCCC3)C[C@@]1(c1cccc(O)c1)C2	Criterion met
C[C@H]1CN(CCCc2ccccc2)[C@@H]2C[C@@H](NC(=O)C3(c4ccccc4)CCC3)C[C@@]1(c1cccc(O)c1)C2	Criterion not met
C[C@H]1CN(CCOc2ccccc2)[C@@H]2C[C@@H](NC(=O)C(C)(C)c3ccccc3)C[C@@]1(c1cccc(O)c1)C2	Criterion not met
C[C@H]1CN(CCCc2ccccc2)[C@@H]2C[C@@H](NC(=O)C3(c4ccccc4)CCCCC3)C[C@@]1(c1cccc(O)c1)C2	Criterion not met
Cc1ccccc1/C=C/CN1C[C@H](C)[C@@]2(c3cccc(O)c3)C[C@H](NC(=O)C(C)(C)c3ccccc3)C[C@@H]1C2	Criterion met
C[C@H]1CN(CCCc2ccccc2)[C@@H]2C[C@@H](NC(=O)C(C)(C)c3ccccc3)C[C@@]1(c1cccc(O)c1)C2	Criterion not met
C[C@H]1CN(CCCc2ccccc2)[C@@H]2C[C@@H](NC(=O)C3(c4cccc5ccccc45)CCCC3)C[C@@]1(c1cccc(O)c1)C2	Criterion not met
C[C@@H](C(=O)N[C@@H]1C[C@@H]2C[C@](c3cccc(O)c3)(C1)[C@@H](C)CN2CCCc1ccccc1)c1ccccc1	Criterion met
C[C@H]1CN(CCCc2ccccc2)[C@@H]2C[C@@H](NC(=O)C3(c4cccs4)CCCC3)C[C@@]1(c1cccc(O)c1)C2	Criterion met
CC1CN(CCCc2ccccc2)[C@@H]2C[C@@H](NC(=O)C3(c4ccccc4)CCCC3)C[C@@]1(c1cccc(O)c1)C2 (single isomer, unassigned; (+))	Criterion met
Cc1ccccc1/C=C/CN1C[C@H](C)[C@@]2(c3cccc(O)c3)C[C@H](NC(=O)C3(c4ccccc4)CCCC3)C[C@@H]1C2	Criterion met
C[C@H]1CN(CCCc2ccccc2)[C@@H]2C[C@@H](NC(=O)C3(c4ccccc4)CCCCCC3)C[C@@]1(c1cccc(O)c1)C2	Criterion not met
CCC(CC)(C(=O)N[C@@H]1C[C@@H]2C[C@](c3cccc(O)c3)(C1)[C@@H](C)CN2CCCc1ccccc1)c1ccccc1	Criterion not met

###

- systemName: Opioid receptors; mu & delta (Homo sapiens) (UniProt P41143+P35372)
- methodSummary: Selectivity for human cloned delta opioid receptor over mu opioid receptor
- Assay type: protein assay
Where a SMILES comes first, the peptide text is derived from it. [ ]: non-standard residue; d: D form. The star is where a group is joined. Tyr(Nα,Nα-allyl2) = C=CCN(CC=C)[C@@H](Cc1ccc(O)cc1)C(=O)*; Aib = CC(C)(N)C(=O)O
Classes (Ratio Ke): Low: < 7; Medium: ≥ 7 and < 60; High: ≥ 60

compound	classLabel
COc1ccc(C2(C(=O)N[C@@H]3C[C@@H]4C[C@](c5cccc(O)c5)(C3)[C@@H](C)CN4CCCc3ccccc3)CCCC2)cc1	Medium
CC1CN(CCCc2ccccc2)[C@@H]2C[C@@H](NC(=O)C3(c4ccccc4)CCCC3)C[C@@]1(c1cccc(O)c1)C2 (single isomer, unassigned; (+))	Medium
C[C@H]1CN(CCCc2ccccc2)[C@@H]2C[C@@H](NC(=O)C(C)(C)c3ccccc3)C[C@@]1(c1cccc(O)c1)C2	High
C[C@H]1CN(C/C=C/c2ccccc2)[C@@H]2C[C@@H](NC(=O)C(C)(C)c3ccccc3)C[C@@]1(c1cccc(O)c1)C2	Low
C[C@H]1CN(C)[C@@H]2C[C@@H](NC(=O)C3(c4ccccc4)CCCC3)C[C@@]1(c1cccc(O)c1)C2	Low
Cc1ccccc1/C=C/CN1C[C@H](C)[C@@]2(c3cccc(O)c3)C[C@H](NC(=O)C3(c4ccccc4)CCCC3)C[C@@H]1C2	Medium
Oc1ccc2c3c1O[C@H]1c4[nH]c5ccccc5c4C[C@@]4(O)[C@@H](C2)N(CC2CC2)CC[C@]314	High
C[C@H]1CN(CCCc2ccccc2)[C@@H]2C[C@@H](NC(=O)C3(c4ccccc4)CCCCCC3)C[C@@]1(c1cccc(O)c1)C2	High
C[C@H]1CN(CCCc2ccccc2)[C@@H]2C[C@@H](NC(=O)C3(c4ccccc4)CCCCC3)C[C@@]1(c1cccc(O)c1)C2	High
C=CCN(CC=C)[C@@H](Cc1ccc(O)cc1)C(=O)NC(C)(C)C(=O)NC(C)(C)C(=O)N[C@@H](Cc1ccccc1)C(=O)N[C@@H](CC(C)C)C(=O)O ({Tyr(Nα,Nα-allyl2)}-[Aib][Aib]FL-OH)	Low
Cc1ccccc1/C=C/CN1C[C@H](C)[C@@]2(c3cccc(O)c3)C[C@H](NC(=O)C(C)(C)c3ccccc3)C[C@@H]1C2	Low

These measurements were taken from ChEMBL document CHEMBL1146887.
